Protocol notes: Cell Viability - LYMP1-003 - Assay at 24 hr (AID 963);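 also: plate controls were DMSO only for no effect and tetraoctylammonium bromide positive control for full effect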
Condition parameters: LYMP1-003 lymphoblastoid cell viability; series mostly up to 92.2 µM
Description: NIH Chemical Genomics Center [NCGC] NIH Molecular Libraries Screening Centers Network [MLSCN] National Institutes of Environmental Health Sciences [NIEHS] National Toxicology Program [NTP] We have developed a 1536-well cell-based assay for quantitative high throughput screening (qHTS) against a number of cell lines to determine in vitro cytotoxicity of small molecules. […] 8. Detection; Luminescence; Viewlux plate reader […]
Activity calls are given as the source filed them. Calls follow the shape of the dose curve; as a rule, active = well fitted cell-killing curve with a large enough effect; inconclusive = small, poorly fitted or top-dose-only effect; inactive = flat fitted curve, though single readings scatter.
API: response.call in active, inactive

Reference set, count: 5
Cc1cc(O)ccc1Cl: inactive
O=[N+]([O-])c1c(Cl)c(Cl)cc(Cl)c1Cl: inactive
CC(C)(O)C(=O)Nc1ccc([N+](=O)[O-])c(C(F)(F)F)c1: inactive
C=CC(=O)NCNC(=O)C=C: inactive
CCOCCOC(C)=O: inactive

Note: attention shifts to another entry.
// return assay outcome for CN(C)NC(=O)CCC(=O)O inactive

* * *

Protocol notes: qHTS of pediatric cancer cell lines to identify multiple opportunities for drug repurposing: Primary screen for Rh41 cells (AID 1347108); also: nearly all actives have a fitted effect of over 70% in size; also: potency is read from the fitted curve at half-maximal effect
Condition parameters: Rh41 rhabdomyosarcoma viability, CellTiter-Glo luminescence, 48 h; series mostly up to 46 µM
Procedure: Drug repurposing or repositioning has been offered as a strategy for drug development in oncology programs. This approach has special potential for childhood cancers and other rare or orphan diseases, where the expected return on new drug development has been a disincentive to pharmaceuticals. […] We employed a titration-based paradigm (quantitative high-throughput screening or qHTS), where all compounds were tested at multiple concentrations for their effect on cell viability. […]
Results filed as inconclusive are left out. The source made the active and inactive calls. Calls follow the shape of the dose curve; as a rule, active = well fitted cell-killing curve with a large enough effect; inconclusive = small, poorly fitted or top-dose-only effect; inactive = no such curve, though single readings can be large or run the other way.
Measured parameter: Potency

As a guide, the following entries are already answered.
NC1=NC(=O)N2CC12 (configuration not stated): inactive
COc1ccc2c(c1)CN(C)CC2c1ccc(Cl)c(Cl)c1 (configuration not stated): inactive
c1cc2c(cc1[C@H]1OC[C@H]3[C@H]1CO[C@H]3c1ccc3c(c1)OCO3)OCO2: inactive
OCCCBr: inactive
O=S(=O)(CC1CS1)c1ccc(Oc2ccccc2)cc1 (configuration not stated): 18.7 µM (active)
CCOC(=O)c1cncn1[C@H](C)c1ccccc1: inactive
CCN1C[C@]2(OC(=O)c3ccccc3NC(C)=O)CC[C@H](OC)[C@@]34[C@H]5CC6[C@@H](OC)C[C@](O)(C(C[C@@H]23)[C@@H]14)[C@@]5(O)[C@@H]6OC: inactive
CC(=O)N(C)c1cccc(-c2ccnc3c(C(=O)c4cccs4)cnn23)c1: inactive
O=C(O)c1cc(Oc2ccc(C(F)(F)F)cc2Cl)ccc1[N+](=O)[O-]: inactive
CCN1CCN(C(=O)Cc2ccc(Nc3ncc(F)c(Nc4ccc(C(=O)Nc5ccccc5Cl)cc4)n3)cc2)CC1: 18.7 µM (active)

Short answer for CCCCCCCCc1ccc(O)cc1 : Potency was inactive

* * *

Protocol notes: qHTS of pediatric cancer cell lines to identify multiple opportunities for drug repurposing: Primary screen for Rh41 cells (AID 1347108); also: nearly all actives have a fitted effect of over 70% in size
Condition parameters: Rh41 rhabdomyosarcoma viability, CellTiter-Glo luminescence, 48 h; series mostly up to 46 µM
Records with an inconclusive call do not appear. The source made the active and inactive calls. The call rests on the fitted dose curve; in most records, active means well fitted cell-killing curve with a large enough effect; inconclusive means small, poorly fitted or top-dose-only effect; inactive means no such curve, though single readings can be large or run the other way.
API: response.call in True for active, False for inactive

Oc1ccc2c3c1O[C@H]1c4[nH]c5c(c4C[C@@]4(O)[C@@H](C2)N(CC2CC2)CC[C@]314)C[C@@]1(O)[C@H]2Cc3ccc(O)c4c3[C@@]1(CCN2CC1CC1)[C@H]5O4: False

// return assay outcome for CC[C@@H]1[C@@H](C)O[C@@](O)([C@@H](C)[C@H](O)[C@H](C)[C@H]2OC(=O)C=CC=C[C@@H](C)[C@@H]([C@@H](C)[C@@H](O)[C@H](C)[C@@]3(O)C[C@H](O[C@H]4C[C@H](O)[C@H](O)[C@H](C)O4)[C@H](CC)[C@@H](C)O3)OC(=O)C=CC=C[C@@H]2C)C[C@H]1O[C@H]1C[C@H](O)[C@H](O)[C@H](C)O1 True

// return assay outcome for C=CC(=O)NCNC(=O)C=C False

// return assay outcome for C[C@@H]1CC[C@@]2(OC1)O[C@H]1C[C@H]3[C@@H]4CC=C5C[C@@H](O[C@@H]6O[C@H](CO)[C@@H](O[C@@H]7O[C@@H](C)[C@H](O)[C@@H](O)[C@@H]7O)[C@H](O)[C@@H]6O[C@@H]6O[C@@H](C)[C@H](O)[C@@H](O)[C@@H]6O)CC[C@]5(C)[C@@H]4CC[C@]3(C)[C@@H]1[C@H]2C True

// return assay outcome for CCCC[N+]1(C)[C@H]2CC(OC(=O)[C@H](CO)c3ccccc3)C[C@H]1[C@H]1O[C@H]12 (stereo not given in full) False

* * *

Protocol notes: Primary qHTS to identify inhibitors of SARS-CoV-2 cell entry (AID 1645846); also: nearly all actives have a fitted effect of over 45% in size
Condition parameters: SARS-CoV-2 pseudovirus cell entry assay, luminescence; at 57.1 µM (top of the series) unless noted
Inconclusive results are not listed.
Measured parameter: activity change, negative = inhibition (%)
Value expressed in %; do not type the unit.

As a guide, the following entries are already answered.
CC(C)(C)C(O)/C=C/c1ccc2c(c1)OCO2 (stereo unspecified): -17.5
O=C(N[C@H]1CN2CCC1CC2)c1ccc(Cl)cc1: 4.38
CN1CCN(c2ccc([N+](=O)[O-])c3no[n+]([O-])c23)CC1: -23.8
Clc1ccc2ncc(-c3cccc(NC4CNC4)n3)n2c1: -15.1

Short answer for CC(C)(C)C(=O)Oc1ccc2c(c1)nc(NC(=O)c1cccc([N+](=O)[O-])c1)n2CCCO : activity change, negative = inhibition was -6.43

Short answer for CC(C)c1ccc(Cn2ccc3c4c(N)nc(NC5CC5)nc4ccc32)cc1 : activity change, negative = inhibition was -96.8

Short answer for COCCn1c2c([n+](Cc3cnccn3)c1C)C(=O)c1ccccc1C2=O : activity change, negative = inhibition was -98.5

Short answer for COc1cc2nc(-c3ccc(N4CCN(C)CC4)cc3)nc(NCCN3CCOCC3)c2cc1OC : activity change, negative = inhibition was -14.2

Short answer for c1ccc(C2(c3ccccc3)CC2C2=NCCN2)cc1 (stereo unspecified) : activity change, negative = inhibition was -20.9

Short answer for C[C@@H]1CCN(C(=O)CC#N)C[C@@H]1N(C)c1ncnc2[nH]ccc12 : activity change, negative = inhibition was -1.42

Short answer for CC(=O)Oc1cccc(C)c1 : activity change, negative = inhibition was 0.724

* * *

Potency listing for selected molecules.
Protocol notes: qHTS of pediatric cancer cell lines to identify multiple opportunities for drug repurposing: Primary screen for SK-N-MC cells (AID 1347093); also: potency is read from the fitted curve at half-maximal effect
Condition parameters: SK-N-MC viability, CellTiter-Glo luminescence, 48 h; series mostly up to 46 µM
Procedure: Drug repurposing or repositioning has been offered as a strategy for drug development in oncology programs. […] [1] Shen, M et al. Quantitative high-throughput phenotypic screening of pediatric cancer cell lines identifies multiple opportunities for drug repurposing. […] Cells were assayed in growth media at a density of 500-1,000 cells/well. […] After a 15 min incubation at room temperature, samples were analyzed for luminescence intensity using a ViewLux High-throughput CCD imager equipped with clear filters.
Results filed as inconclusive are left out. Activity calls are given as the source filed them. Calls follow the shape of the dose curve; as a rule, active = well fitted cell-killing curve with a large enough effect; inconclusive = small, poorly fitted or top-dose-only effect; inactive = no such curve, though single readings can be large or run the other way.

As a guide, the following entries are already answered.
COc1ccc2c(c[n+](C)c3c4cc5c(cc4ccc23)OCO5)c1OC: 5900 nM (active)
CC(=Cc1csc(C)n1)[C@@H]1C[C@H]2O[C@@H]2CCC[C@H](C)[C@@H](O)[C@@H](C)C(=O)C(C)(C)[C@@H](O)CC(=O)O1: 1 nM (active)
C[C@@]12OC(=O)[C@]1([C@@H](O)[C@@H]1C=CCCC1)NC(=O)[C@H]2CCCl: 8.3 nM (active)

Short answer for C[C@@H]1O[C@@H](O[C@@H]2C=C3CC[C@@H]4[C@@H](CC[C@]5(C)[C@H](c6ccc(=O)oc6)CC[C@@]45O)[C@@]3(C)CC2)[C@H](O)[C@H](O)[C@H]1O : Potency was 8.3 nM (active)

* * *

Protocol notes: qHTS Assay for Identifying Gametocytocidal Compounds (AID 743244); also: potency is read from the fitted curve at half-maximal effect
Condition parameters: P. falciparum 3D7 stage III-V gametocytes, alamarBlue, 72 h
Results filed as inconclusive are left out. The source made the active and inactive calls. Calls come from the whole dose curve; as a rule, active = well fitted curve in the direction sought with a large enough effect; inconclusive = small, poorly fitted or top-dose-only effect, or another doubt; inactive = no such curve, though single readings can be large or run the other way.
Measured parameter: Potency

As a guide, the following entries are already answered.
C[C@@]12O[C@@H](C[C@]1(O)CO)n1c3ccccc3c3c4c(c5c6ccccc6n2c5c31)CNC4=O: 5.9 µM (active)
CO[C@H]1C=CC=C(C)C(=O)NC2=CC(=O)C(NCCN(C)C)=C(C[C@@H](C)C[C@H](OC)[C@@H](O)[C@@H](C)C=C(C)[C@@H]1OC(N)=O)C2=O: 0.0469 µM (active)
CCCCCCCCCCCCCCCC[N+](C)(C)C: 10 µM (active)
Nc1cccc2c(N)cccc12: 25.1 µM (active)
O=C(O)c1ccc(O)c2ncc(N3CCOCC3)cc12: 9.35 µM (active)

Short answer for COc1ccc2c(c1)CC[C@H]1[C@@H]2CC[C@]2(C)[C@@H](NCCCCCCN3C(=O)C=CC3=O)CC[C@H]12 : Potency was 9.35 µM (active)

Short answer for CN[C@@H](C)C(=O)N[C@H]1CCCC[C@H]2CC[C@@H](C(=O)N[C@@H](c3ccccc3)c3cn(CCCCc4ccc(CCCCn5cc([C@@H](NC(=O)[C@@H]6CC[C@@H]7CCCC[C@H](NC(=O)[C@H](C)NC)C(=O)N76)c6ccccc6)nn5)cc4)nn3)N2C1=O : Potency was 2.64 µM (active)

Short answer for S=C(SSC(=S)N1CCCCC1)N1CCCCC1 : Potency was 0.148 µM (active)
